# MEASURED_TARGET: T1, human GIPR (human), P48546
# T1 chain: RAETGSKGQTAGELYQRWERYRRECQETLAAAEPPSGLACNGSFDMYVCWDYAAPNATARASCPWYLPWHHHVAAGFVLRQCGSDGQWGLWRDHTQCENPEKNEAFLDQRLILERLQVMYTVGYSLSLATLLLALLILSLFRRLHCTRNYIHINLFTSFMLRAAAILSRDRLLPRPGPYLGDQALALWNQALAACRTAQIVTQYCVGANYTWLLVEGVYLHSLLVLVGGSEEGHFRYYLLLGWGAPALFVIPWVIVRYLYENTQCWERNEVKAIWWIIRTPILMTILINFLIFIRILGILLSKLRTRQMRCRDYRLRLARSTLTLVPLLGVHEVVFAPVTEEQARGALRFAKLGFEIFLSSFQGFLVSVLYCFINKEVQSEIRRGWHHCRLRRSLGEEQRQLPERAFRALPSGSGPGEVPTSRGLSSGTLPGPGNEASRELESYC
# ASSAY_METHOD_TEXT: [125I]GIP displacement, hGIPR VLP
Non-standard residues stand in square brackets, D forms with d. Groups on a side chain read outwards from the residue. Primed or numbered codes have the meaning given here. No end group written: not given here. *: point of attachment. NMeY = CN[C@@H](Cc1ccc(O)cc1)C(=O)O; αMeF = C[C@](N)(Cc1ccccc1)C(=O)O; Lauroyl = CCCCCCCCCCCC(=O)*; dIva = CC[C@@](C)(N)C(=O)O; Iva = CC[C@](C)(N)C(=O)O; PEG2′ = not defined here; Aib = CC(C)(N)C(=O)O
Entries and their pIC50
API: returns pIC50 as number; meaning -log10 of concentration in mol/L.

Example entries begin here.
[
  {
    "BINDER": "[NMeY][Aib]EGTFISDYSI[dIva]LDR[Aib]AQ[Aib]N[αMeF]VNWLLAQRPSSGAPPPSR (not fully specified (N-terminus, C-terminus); ends and bridges not checked) [Compound 106]",
    "METRIC_NAME": "pIC50",
    "REPORTED_VALUE": 8.80
  },
  {
    "BINDER": "[NMeY][Aib]EGTFISDYSIALDRIAQ[Aib]SFVNW[Iva]LAQRPSSGAPPPSR (ends and bridges not checked) [Compound 124]",
    "METRIC_NAME": "pIC50",
    "REPORTED_VALUE": 8.80
  },
  {
    "BINDER": "Y[Aib]EGTFISDYSK([PEG(2)-Lauroyl])ALDRIHQQSFVNW[Iva]LAQRPSSGAPPPS (not fully specified (C-terminus); ends and bridges not checked) [Compound 222]",
    "METRIC_NAME": "pIC50",
    "REPORTED_VALUE": 8.54
  },
  {
    "BINDER": "Y[Aib]EGTFISDYSK([PEG2′-Lauroyl])ALDRIAQQSFVNW[Iva]LAQRPSSGAPPPS (not fully specified (C-terminus); ends and bridges not checked) [Compound 220]",
    "METRIC_NAME": "pIC50",
    "REPORTED_VALUE": 8.54
  },
  {
    "BINDER": "Y[Aib]EGTFISDYSK([PEG(2)-Pal])ALDRIHQQDFVNWLLAQRPSSGAPPPSR (ends and bridges not checked) [Compound 177]",
    "METRIC_NAME": "pIC50",
    "REPORTED_VALUE": 8.62
  },
  {
    "BINDER": "Y[Aib]EGTFISDYSK([PEG(2)-Ac])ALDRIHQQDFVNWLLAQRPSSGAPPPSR (ends and bridges not checked) [Compound 178]",
    "METRIC_NAME": "pIC50",
    "REPORTED_VALUE": 8.52
  }
]

Answer with the recorded pIC50 of [NMeY][Aib]EGTFISDYSIALDRIAQQS[αMeF]VNWLLAQRPSSGAPPPSR (not fully specified (C-terminus); ends and bridges not checked) [Compound 71] only.
8.68

Answer with the recorded pIC50 of Y[Aib]EGTFISDYSK([PEG(2)-Lauroyl])ALDRIAQQSFVNWLLAQRPSSGAPPPS (ends and bridges not checked) [Compound 203] only.
8.68
